- ASSAY_DETAILS: In vivo pharmacokinetic experiment in CD-1 female mice, intravenous
- SETTINGS: mouse, 1 mg/kg, CD-1 mice, 1 mpk, whole blood, read-out: Whole blood AUClast
QUANTITY: AUC(0-t) (ng·h/mL)
Please reply with the bare figure in ng·h/mL and do not write the unit itself.

Given the molecule `Cc1sc(C(=O)c2cncnc2N[C@H]2C[C@H](O)[C@@H](COS(N)(=O)=O)[C@@H]2F)cc1[C@@H]1NCCc2ccc(Cl)cc21` , what is its reported AUC(0-t)?
30100

====

- TEST_SYSTEM: SAE (Homo sapiens)
- Construct: endogenous in cells; host or cells: HCT116
- ASSAY_DETAILS: SUMO IF: in vitro inhibitory activity assay against SAE in HCT116 cells (SUMO-2/3 immunofluorescence)
- Assay type: cell-based
- SETTINGS: class symbols, 6 h at 37° C.
pIC50: −log10 of the molar value.
Measured pIC50, listed per entry.

Worked set:
In [3]: df
Out[3]:
                                   compound        result
0  CC1Cc2ccc(Cl)cc2C2(C=Cc3sc(C(=O)c4cncnc4N[C@H]4C[C@H](O)[C@@H](COS(N)(=O)=O)[C@@H]4F)cc32)N1 (some centres unmarked)  6.70 to 7.30
1  Cc1cc2c(cc1Cl)C1(CCc3sc(C(=O)c4cncnc4N[C@H]4C[C@H](O)[C@@H](COS(N)(=O)=O)[C@@H]4F)cc31)NCC2 (some centres unmarked)  6.70 to 7.30
2  NS(=O)(=O)OC[C@H]1[C@H](F)[C@@H](Nc2ncncc2C(=O)c2cc3c(s2)CCCC32NCCc3cc(F)c(Cl)cc32)C[C@@H]1O (some centres unmarked)        ≥ 7.30
3  NS(=O)(=O)OC[C@H]1[C@H](F)[C@@H](Nc2ncncc2C(=O)c2cc3c(s2)CSC[C@]32NCCc3ccc(F)cc32)C[C@@H]1O        ≥ 7.30
4  NS(=O)(=O)OC[C@H]1[C@H](F)[C@@H](Nc2ncncc2C(=O)c2cc3c(s2)CCCC32NCCc3ccc(C4CC4)cc32)C[C@@H]1O (some centres unmarked)  6.70 to 7.30

What pIC50 appears in the records for this compound with SAE (Homo sapiens)? `NS(=O)(=O)OC[C@H]1[C@H](F)[C@@H](Nc2ncncc2C(=O)c2cc3c(s2)CSC[C@]32NCCc3ncc(Cl)cc32)C[C@@H]1O`
≥ 7.30

What pIC50 appears in the records for this compound with SAE (Homo sapiens)? `N#Cc1ccc2c(c1)[C@]1(C=Cc3sc(C(=O)c4cncnc4N[C@H]4C[C@H](O)[C@@H](COS(N)(=O)=O)[C@@H]4F)cc31)OCC2`
< 6.70

What pIC50 appears in the records for this compound with SAE (Homo sapiens)? `NS(=O)(=O)OC[C@H]1[C@H](F)[C@@H](Nc2ncncc2C(=O)c2cc3c(s2)OC[C@]32NCCc3ccc(Cl)cc32)C[C@@H]1O`
6.70 to 7.30

====

- TEST_SYSTEM: SAE (Homo sapiens, UniProt Q9UBT2)
- Construct: endogenous in cells; host or cells: HCT116
- Sequence (Q9UBT2 1-640): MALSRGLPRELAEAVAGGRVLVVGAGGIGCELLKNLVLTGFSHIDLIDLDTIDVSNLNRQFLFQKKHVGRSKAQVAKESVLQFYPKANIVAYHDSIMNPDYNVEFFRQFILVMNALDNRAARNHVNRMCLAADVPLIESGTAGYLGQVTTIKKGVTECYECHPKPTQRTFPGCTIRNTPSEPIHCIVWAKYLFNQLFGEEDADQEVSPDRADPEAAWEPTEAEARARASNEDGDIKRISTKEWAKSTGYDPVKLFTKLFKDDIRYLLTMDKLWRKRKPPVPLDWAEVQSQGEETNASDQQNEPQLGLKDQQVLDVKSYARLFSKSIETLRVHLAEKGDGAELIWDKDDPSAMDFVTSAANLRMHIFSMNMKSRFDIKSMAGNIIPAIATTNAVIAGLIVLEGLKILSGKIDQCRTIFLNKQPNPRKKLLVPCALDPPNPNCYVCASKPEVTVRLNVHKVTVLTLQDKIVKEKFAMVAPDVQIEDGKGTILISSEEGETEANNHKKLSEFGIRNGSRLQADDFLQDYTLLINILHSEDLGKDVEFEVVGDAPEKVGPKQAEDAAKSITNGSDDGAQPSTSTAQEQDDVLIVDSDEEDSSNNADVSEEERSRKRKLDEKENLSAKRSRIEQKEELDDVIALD
- Sequence (Q9UBE0 1-346): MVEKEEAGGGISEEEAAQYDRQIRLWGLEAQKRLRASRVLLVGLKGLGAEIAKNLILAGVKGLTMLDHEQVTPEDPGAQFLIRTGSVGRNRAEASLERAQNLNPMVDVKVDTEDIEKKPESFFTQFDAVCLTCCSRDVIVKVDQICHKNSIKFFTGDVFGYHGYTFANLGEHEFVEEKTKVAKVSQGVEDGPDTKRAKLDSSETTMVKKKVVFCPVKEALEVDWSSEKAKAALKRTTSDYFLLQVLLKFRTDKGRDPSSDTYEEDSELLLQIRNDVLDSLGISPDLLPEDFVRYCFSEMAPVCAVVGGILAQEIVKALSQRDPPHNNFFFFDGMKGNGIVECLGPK
- ASSAY_DETAILS: SUMO IF: in vitro inhibitory activity assay against SAE in HCT116 cells (SUMO-2/3 immunofluorescence)
- Format: cell-based
- SETTINGS: class symbols, 6 h at 37° C.
pIC50: −log10 of the molar value.
QUANTITY: pIC50

Given the compound NS(=O)(=O)OC[C@H]1[C@H](F)[C@@H](Nc2ncncc2C(=O)c2cc3c(s2)CN(C2CC2)C[C@@]32OCCc3ccc(F)cc32)C[C@@H]1O [Compound 739] , what is its reported pIC50?
< 6.70

Given the compound CC1=CC2(NCCc3ccc(F)cc32)c2cc(C(=O)c3cncnc3N[C@H]3C[C@H](O)[C@@H](COS(N)(=O)=O)[C@@H]3F)sc21 (stereo partly drawn) [Compound 621] , what is its reported pIC50?
6.70 to 7.30

Given the compound NS(=O)(=O)OC[C@H]1[C@H](F)[C@@H](Nc2ncncc2C(=O)c2cc3c(s2)CSC[C@@]32NCCc3ccccc32)C[C@@H]1O [Compound 295] , what is its reported pIC50?
< 6.70

====

- ASSAY_DETAILS: In vivo pharmacokinetic experiment in CD-1 female mice, intravenous
- SETTINGS: mouse, 1 mg/kg, CD-1 mice, 1 mpk, plasma
QUANTITY: clearance (mL/min/kg)
Please reply with the bare figure in mL/min/kg and do not write the unit itself.

Given the compound `Cc1sc(C(=O)c2cncnc2N[C@H]2C[C@H](O)[C@@H](COS(N)(=O)=O)[C@@H]2F)cc1[C@@H]1NCCc2ccc(Cl)cc21` , what is its reported clearance?
103

====

- TEST_SYSTEM: SAE (Homo sapiens, UniProt Q9UBT2)
- Construct: endogenous in cells; host or cells: HCT116
- ASSAY_DETAILS: SUMO IF: in vitro inhibitory activity assay against SAE in HCT116 cells (SUMO-2/3 immunofluorescence)
- Assay type: cell-based
- SETTINGS: class symbols, 6 h at 37° C.
pIC50: −log10 of the molar value.
QUANTITY: pIC50

Worked set:
                                   compound        result
0  NS(=O)(=O)OC[C@H]1[C@H](F)[C@@H](Nc2ncncc2C(=O)c2cc3c(s2)CCC[C@]32NCCc3ccccc32)C[C@@H]1O        ≥ 7.30
1  NS(=O)(=O)OC[C@H]1[C@H](F)[C@@H](Nc2ncncc2C(=O)c2cc(C3NCCc4ccc(Cl)cc43)c(C3CC3)s2)C[C@@H]1O (stereo partly drawn)  6.70 to 7.30
2  COc1cc2c(cc1Cl)[C@@]1(CCc3sc(C(=O)c4cncnc4N[C@H]4C[C@H](O)[C@@H](COS(N)(=O)=O)[C@@H]4F)cc31)NCC2  6.70 to 7.30
3  Cc1sc(C(=O)c2cncnc2N[C@H]2C[C@H](O)[C@@H](COS(N)(=O)=O)[C@@H]2F)cc1C1NCc2ccc(Cl)cc21 (stereo partly drawn)        < 6.70
4  NS(=O)(=O)OC[C@H]1[C@H](F)[C@@H](Nc2ncncc2C(=O)c2cc3c(s2)CNC[C@@]32NCCc3ccc(Cl)cc32)C[C@@H]1O        < 6.70

Could you now look at the following compound, please?
Given the compound `CC1=C[C@@]2(NCCc3ccc(Cl)cc32)c2cc(C(=O)c3cncnc3N[C@H]3C[C@H](O)[C@@H](COS(N)(=O)=O)[C@@H]3F)sc21` , what is its reported pIC50?
< 6.70

====

- ASSAY_DETAILS: In vivo pharmacokinetic experiment in CD-1 female mice, intravenous
- SETTINGS: mouse, in vivo, iv, 1 mg/kg, CD-1 mice, 1 mpk, read-out: Whole blood AUClast/plasma AUClast ratio
QUANTITY: blood plasma ratio
Number, no unit, nothing else.

Given the molecule `Cc1sc(C(=O)c2cncnc2N[C@H]2C[C@H](O)[C@@H](COS(N)(=O)=O)[C@@H]2F)cc1[C@@H]1NCCc2ccc(Cl)cc21` , what is its reported blood plasma ratio?
228

Reference source for all entries: patent US20260297109A1
